Biological target: PIK3CA (human) (UniProt P42336)
Sequence (P42336 whole entry, looked up): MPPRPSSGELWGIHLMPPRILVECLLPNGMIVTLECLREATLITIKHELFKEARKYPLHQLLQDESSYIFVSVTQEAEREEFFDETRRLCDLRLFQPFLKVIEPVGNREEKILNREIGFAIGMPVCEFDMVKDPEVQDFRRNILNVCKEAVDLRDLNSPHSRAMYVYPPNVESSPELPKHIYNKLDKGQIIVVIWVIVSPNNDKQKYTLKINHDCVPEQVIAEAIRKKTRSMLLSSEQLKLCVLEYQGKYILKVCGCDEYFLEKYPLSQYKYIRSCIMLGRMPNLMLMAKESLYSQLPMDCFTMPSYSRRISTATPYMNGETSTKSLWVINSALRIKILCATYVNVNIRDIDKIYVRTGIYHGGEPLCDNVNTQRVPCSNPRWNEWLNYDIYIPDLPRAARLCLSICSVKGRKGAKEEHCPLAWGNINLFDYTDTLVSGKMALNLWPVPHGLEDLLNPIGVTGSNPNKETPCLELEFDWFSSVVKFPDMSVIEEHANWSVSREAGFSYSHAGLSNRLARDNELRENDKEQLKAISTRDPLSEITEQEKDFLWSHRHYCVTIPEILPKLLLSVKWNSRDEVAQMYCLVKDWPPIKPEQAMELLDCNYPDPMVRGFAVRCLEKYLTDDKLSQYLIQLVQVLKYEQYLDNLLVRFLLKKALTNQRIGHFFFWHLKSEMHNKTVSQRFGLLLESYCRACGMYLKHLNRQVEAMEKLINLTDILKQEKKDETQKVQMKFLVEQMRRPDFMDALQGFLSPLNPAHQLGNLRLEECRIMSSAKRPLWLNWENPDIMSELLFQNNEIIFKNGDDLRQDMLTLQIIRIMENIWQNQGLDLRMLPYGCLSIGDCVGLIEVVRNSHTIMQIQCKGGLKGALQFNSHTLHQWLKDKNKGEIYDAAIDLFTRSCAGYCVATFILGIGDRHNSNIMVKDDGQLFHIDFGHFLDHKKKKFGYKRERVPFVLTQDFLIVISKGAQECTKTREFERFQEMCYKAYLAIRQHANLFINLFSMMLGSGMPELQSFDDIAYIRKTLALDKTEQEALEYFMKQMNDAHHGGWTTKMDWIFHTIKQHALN
pIC50: −log10 of the molar value.
In this section, each of the molecules is paired with its reported pIC50.

These solved cases illustrate the format of a correct answer.
>  <Molecular String>
Cc1cc(-c2cnc(Cl)c(NS(C)(=O)=O)c2)cc2c1OCCN(c1nc(N)ncc1C(F)(F)F)C2

>  <Experimental Result>
≥ 7.00

$$$$
>  <Molecular String>
Cc1cc(-c2cncc(NS(C)(=O)=O)c2)cc2c1OCCN(c1nc(N)nc(C)c1C(C)C)C2

>  <Experimental Result>
≥ 7.00

$$$$
>  <Molecular String>
Cc1cc(-c2cnc3sc(N)nc3c2)cc2c1OCCN(c1nc(CN(C)C)nc(Cl)c1C(C)C)C2

>  <Experimental Result>
≥ 7.00

$$$$
>  <Molecular String>
Cc1cc(-c2cnc3sc(N)nc3c2)cc2c1OCCN(c1ncc(C(N)=O)c(N)n1)C2

>  <Experimental Result>
6.30 to 7.00

$$$$
>  <Molecular String>
Cc1cc(-c2cnc3sc(N)nc3c2)cc2c1OCCN(c1ncc(C(F)(F)F)c(N)n1)C2

>  <Experimental Result>
6.30 to 7.00

$$$$
>  <Molecular String>
Cc1cc(-c2nnc(N)s2)cc2c1OCCN(c1ncnc(C)c1C(C)C)C2

>  <Experimental Result>
≥ 7.00

$$$$
>  <Molecular String>
C=C(C)c1c(C)ncnc1N1CCOc2c(C)cc(-c3cnc4sc(N)nc4c3)cc2C1

>  <Experimental Result>
≥ 7.00

$$$$
>  <Molecular String>
Cc1cc(-c2cnc3sc(N)nc3c2)cc2c1OCCN(c1nc(N3CC(O)C3)nc(C)c1C(C)C)C2

>  <Experimental Result>
≥ 7.00

$$$$

Provide value of pIC50 for this record tested with PIK3CA (human) (UniProt P42336): Cc1cc(-c2cnc3sc(N)nc3c2)cc2c1OCCN(c1ncnc(C)c1C(C)C)C2
≥ 7.00

Enter reported pIC50 observed with PIK3CA (human) (UniProt P42336) for Cc1nc2cc(-c3cc(C)c4c(c3)CN(c3nc(N)nc(C)c3C(C)C)CCO4)cnc2[nH]1
≥ 7.00

Request body: readout pIC50, system PIK3CA (human) (UniProt P42336), query COc1ccc(-c2cc(C)c3c(c2)CN(c2nc(N)nc(C)c2C(C)C)CCO3)cn1 . Return the value.
≥ 7.00

Entry Cc1cc(-c2cnc3sc(N)nc3c2)cc2c1OCCN(c1nc(CN)nc(C)c1C(C)C)C2 , system PIK3CA (human) (UniProt P42336): what pIC50 was measured?
≥ 7.00

Please provide the recorded pIC50 for Cc1cc(-c2cnc3sc(N)nc3c2)cc2c1OCCN(c1nc(CN(C)C)ncc1CC(F)(F)F)C2 , tested on PIK3CA (human) (UniProt P42336).
6.30 to 7.00

// fetch PIK3CA (human) (UniProt P42336) pIC50 for Cc1cc(-c2cnc(Cl)c(NS(C)(=O)=O)c2)cc2c1OCCN(c1ncc(C(F)(F)F)c(N)n1)C2
≥ 7.00

Tell me reported pIC50 for Cc1cc(-c2cnc3sc(N)nc3c2)cc2c1OCCN(c1nc(CN3CCCC3)ncc1C(C)C)C2 , tested with PIK3CA (human) (UniProt P42336).
≥ 7.00

Recall the recorded pIC50 for Cc1cc(-c2cnc3sc(N)nc3c2)cc2c1OCCN(c1nc(N)nc3c1CC(C)(C)CC3)C2 with PIK3CA (human) (UniProt P42336) and state it.
≥ 7.00

Value wanted: pIC50 (PIK3CA (human) (UniProt P42336)) of entry Cc1cc(-c2cnc3sc(N)nc3c2)cc2c1OCCN(c1nc(C3CC3)nc(C)c1C(C)C)C2
≥ 7.00

Notebook entry, PIK3CA (human) (UniProt P42336) assay: pIC50 of CNC(=O)c1sc(N2CCOc3c(C)cc(-c4cnc(Cl)c(NS(C)(=O)=O)c4)cc3C2)nc1C(C)C = ?
6.30 to 7.00

Could you share what pIC50 was measured for Cc1cc(-c2cnc3sc(N)nc3c2)cc2c1OCCN(c1nc(N)c(C#N)c(C)c1C#N)C2 , tested on PIK3CA (human) (UniProt P42336)?
≥ 7.00

Recorded pIC50 for Cc1cc(-c2cnc(Cl)c(NS(C)(=O)=O)c2)cc2c1OCCN(c1nc(CNCCF)nc(C)c1C(C)C)C2 with PIK3CA (human) (UniProt P42336), please?
≥ 7.00

Entry Cc1cc(-c2cccnc2)cc2c1OCCN(c1nc(N)nc(C)c1C(C)C)C2 , system PIK3CA (human) (UniProt P42336): what pIC50 was measured?
≥ 7.00

Checklist item: pIC50 tested on PIK3CA (human) (UniProt P42336), entry Cc1nc2ccc(-c3cc(C)c4c(c3)CN(c3ncnc5ccc(I)cc35)CCO4)cc2[nH]1 , value?
≥ 7.00

Item Cc1ncc(C(C)C)c(N2CCOc3c(C)cc(-c4nnc(N)s4)cc3C2)n1 with PIK3CA (human) (UniProt P42336) - pIC50?
≥ 7.00

Reported pIC50 for PIK3CA (human) (UniProt P42336), given Cc1cc(-c2nnc(N)s2)cc2c1OCCN(c1nc(N)nc(C)c1C)C2 ?
≥ 7.00

* * *

What follows is a collection of IC50 values obtained with PIK3CA (human) (UniProt P42336).

Some solved entries appear below for comparison.
>  <Compound>
C=Cc1c(C)nc(N)nc1N1CCOc2c(C)cc(-c3cnc4sc(N)nc4c3)cc2C1

>  <System Under Test>
PIK3CA (human) (UniProt P42336)

>  <IC50>
≤ 100 nM

$$$$
>  <Compound>
COc1nc(C)c(C(C)C)c(N2CCOc3c(C)cc(-c4cnc5sc(N)nc5c4)cc3C2)n1

>  <System Under Test>
PIK3CA (human) (UniProt P42336)

>  <IC50>
≤ 100 nM

$$$$
>  <Compound>
Cc1cc(-c2cnc3sc(N)nc3c2)cc2c1OCCN(c1nc(CN3CCC(F)(F)C3)nc(C)c1C(C)C)C2

>  <System Under Test>
PIK3CA (human) (UniProt P42336)

>  <IC50>
≤ 100 nM

$$$$

What measured IC50 is associated with Cc1cc(-c2cnc3sc(N)nc3c2)cc2c1OCCN(c1nc(N)ncc1C(F)(F)F)C2 on PIK3CA (human) (UniProt P42336)?
≤ 100 nM

Give the reported IC50 for Cc1cc(-c2cnc3sc(N)nc3c2)cc2c1OCCN(c1ncnc3c1CC[C@H](C)C3)C2 (system: PIK3CA (human) (UniProt P42336)).
≤ 100 nM

Enter reported IC50 observed with PIK3CA (human) (UniProt P42336) for Cc1cc(-c2cnc3sc(N)nc3c2)cc2c1OCCN(c1nc(N)nc(Cl)c1C(C)C)C2
≤ 100 nM

Provide value of IC50 for this record tested with PIK3CA (human) (UniProt P42336): Cc1cc(-c2cnc3sc(N)nc3c2)cc2c1OCCN(c1nc([S+](C)[O-])nc(C)c1C(C)C)C2 (centres undefined)
≤ 100 nM

Report IC50 for Cc1cc(-c2cnc3sc(N)nc3c2)cc2c1OCCN(c1nc(CN3CCCC3)nc(C)c1C(C)C)C2 tested on PIK3CA (human) (UniProt P42336).
≤ 100 nM

Request body: readout IC50, system PIK3CA (human) (UniProt P42336), query Cc1cc(-c2cnc3sc(N)nc3c2)cc2c1OCCN(c1nc(C3CCCN3C)nc(C)c1C(C)C)C2 (centres undefined) . Return the value.
≤ 100 nM
